For each entry below, report its log10(MIC) value.
- System: A. baumannii Ab-ARA (wild type, empty cassette)
- TEST DESCRIPTION: microbe, parasite or virus in culture
- Assay type: cell-based
- CONDITION LABEL: Acinetobacter baumannii, at least three independent measurements, read-out: MIC
Bridge positions count the residues as written; N and C are the ends. Square brackets hold non-standard residues; d marks the D form. Peptide text beside a SMILES is read from it. * marks the point of attachment. Ileψ(thiazoline)Cys = CC[C@H](C)[C@H](N)C1=N[C@H](C(=O)*)CS1; dOrn = NCCC[C@@H](N)C(=O)O
Note the log scale: values are log10 of MIC expressed in µg/mL.

Enquiry: Look up log10(MIC) of CC[C@H]1OC(=O)[C@H](C)[C@@H](O[C@H]2C[C@@](C)(OC)[C@@H](O)[C@H](C)O2)[C@H](C)[C@@H](O[C@@H]2O[C@H](C)C[C@H](N(C)C)[C@H]2O)[C@](C)(O)C[C@@H](C)C(=O)[C@H](C)[C@@H](O)[C@]1(C)O and report it.
Return: 0.70

Enquiry: Consider the compound CO[C@@H]1[C@@H](OC(N)=O)[C@@H](O)[C@H](Oc2ccc3c(O)c(NC(=O)c4ccc(O)c(CC=C(C)C)c4)c(=O)oc3c2C)OC1(C)C and give its recorded log10(MIC).
Return: 0.49

Enquiry: Given the compound O=C(N[C@H](CO)[C@H](O)c1ccc([N+](=O)[O-])cc1)C(Cl)Cl , write its reported log10(MIC).
Return: 1.51

Enquiry: Annotate the compound CC1(C)S[C@@H]2[C@H](NC(=O)[C@H](N)c3ccccc3)C(=O)N2[C@H]1C(=O)O with its measured log10(MIC).
Return: 3.31

Enquiry: Give recorded log10(MIC). CC[C@H](C)[C@H](N)C1=N[C@H](C(=O)N[C@@H](CC(C)C)C(=O)N[C@H](CCC(=O)O)C(=O)N[C@H](C(=O)N[C@H]2CCCCNC(=O)[C@H](CC(N)=O)NC(=O)[C@@H](CC(=O)O)NC(=O)[C@H](Cc3cnc[nH]3)NC(=O)[C@@H](Cc3ccccc3)NC(=O)[C@H]([C@@H](C)CC)NC(=O)[C@@H](CCCN)NC2=O)[C@@H](C)CC)CS1 [Bacitracin] ({Ileψ(thiazoline)Cys}-L[dE]IK[dOrn]I[dF]H[dD]N; lactam 4-C)
Return: 2.41

Hey, just so you know, these numbers are from patent US11021521B2.
